The measurements presented in this section are drawn from patent US4954520A.

- Tested on: LTB4 production in HL-60 cells
- testMethodNotes: A23187-Induced LTB4 Production in Human Promyelocytic Leukemia HL-60 Cells (HL-60 Cell Assay)
- Assay type: cell-based
- condition: A23187-stimulated differentiated HL-60 cells, 10 minutes preincubation at 37° C.
- Source text: A23187-Induced LTB4 Production in Human Promyelocytic Leukemia HL-60 Cells. Calcium ionophore A23187 was obtained from Calbiochem (La Jolla, CA). Trans-stilbene oxide was obtained from Sigma (St. Louis, MO). Hanks' balanced salt solution (HBSS) (10X concentrate), 1 M Hepes, and Dulbecco's modified Eagle medium were obtained from GIBCO Laboratories (Grand Island, NY). […] LTB4 and PGE2 data were expressed as percent inhibition of A23187-stimulated controls. […]
Counter-ions that a name gives are not always drawn.
Examples of molecules with documented pIC50 follow.
Value format note: pIC50 is -log10 of concentration (mol/L); just state the number.

1. CCCCCCCCCC/C=C/C=C/C1OCC(CCCC(=O)O)O1 (single isomer, unassigned) [Example 5B (Single Diastereomer), lithium salt]    5.14

[in] Tell me the measured pIC50 of CCCCCCCCCC/C=C/C=C/C1OCC(c2cccc(C(=O)O)c2)O1 (racemic) [Example 7B (Racemic Mixture), lithium salt] , please.
[out] 5.60

[in] // same read-out, input: CCCCCCCCCC/C=C/C=C/C1OCC(CCCC(=O)O)O1 (racemic) [Example 5B (Racemic Mixture), lithium salt]
[out] 5.17

[in] // same read-out, input: CCCCCCCCCC/C=C/C=C/C1OCC(c2cccc(C(=O)[O-])c2)O1.[Li+] (single isomer, unassigned) [Example 7B (Single diastereomer), lithium salt]
[out] 5.44
